System: IL-12 production
Protocol Description: In vitro assay of Example 12: inhibition of IL-12 production in IFNγ/LPS- or IFNγ/SAC-stimulated cells, ELISA
Format: cell-based, human
Stated Conditions: Homo sapiens; assay of Example 12; if more than one assay was performed, only the most active IC50 result is reported
Test Readout: IC50 (nM)
Give the number; nM is assumed, so skip it.

Some solved entries appear below for comparison.
Param item: COc1ccc(CCOc2nc(N3CCOCC3)c3cc(Oc4cccc(Cl)c4)ccc3n2)cc1OC [Compound 35] ; param system: IL-12 production; output IC50: 9900

Param item: Cc1cccc(-c2ccc3nc(OCCN4CCOCC4)nc(N4CCOCC4)c3c2)c1 [Compound 12] ; param system: IL-12 production; output IC50: 189

Param item: COc1ccc(CCOc2nc(N3CCOCC3)c3cc(Oc4ccc(C)cc4)ccc3n2)cc1OC [Compound 36] ; param system: IL-12 production; output IC50: 2600

Param item: COc1ccc(CCOc2nc(N3CCOCC3)c3cc(-c4ccc(C)c(C)c4)ccc3n2)cc1OC [Compound 26] ; param system: IL-12 production; output IC50: 107

As a next step, examine the compound that follows.
Param item: COc1ccc(CCOc2nc(N3CCOCC3)c3cc(-c4cccc(C(N)=O)c4)ccc3n2)cc1OC [Compound 24] ; param system: IL-12 production; output IC50: 1430

---

Test system: IL-12 production
Protocol Description: In vitro assay of Example 12: inhibition of IL-12 production in IFNγ/LPS- or IFNγ/SAC-stimulated cells, ELISA
Format: cell-based, human
Stated Conditions: Homo sapiens; assay of Example 12; if more than one assay was performed, only the most active IC50 result is reported
# key: entry, value: IC50

Some solved entries appear below for comparison.
Documented IC50 of `COc1ccc(CCOc2nc(N3CCOCC3)c3cc(Nc4ccccc4C)ccc3n2)cc1OC` : > 10 µM

Documented IC50 of `COc1ccc(CCOc2nc(N3CCOCC3)c3cc(Nc4ccc(C)cc4)ccc3n2)cc1OC` : > 10 µM

Documented IC50 of `COc1ccc(CCOc2nc(N3CCOCC3)c3cc(-c4ccc(Cl)cc4)ccc3n2)cc1OC` : > 1 µM

Documented IC50 of `c1ccc(Oc2cnc3nc(OCCN4CCOCC4)nc(N4CCOCC4)c3c2)cc1` : > 1 µM

Documented IC50 of `COc1ccc(CCOc2nc(N3CCOCC3)c3cc(Nc4cccc(C)c4)ccc3n2)cc1OC` : > 10 µM

Continuing:
Documented IC50 of `Cc1cccc(-c2cnc3nc(OCCN4CCOCC4)nc(N4CCOCC4)c3c2)c1` : > 10 µM

Documented IC50 of `Cc1ccccc1Oc1cnc2nc(OCCN3CCOCC3)nc(N3CCOCC3)c2c1` : > 1 µM

Documented IC50 of `Cc1ccc(-c2cnc3nc(OCCN4CCOCC4)nc(N4CCOCC4)c3c2)cc1C` : > 10 µM

Documented IC50 of `COc1ccc(CCOc2nc(N3CCOCC3)c3cc(-c4ccc(F)cc4)ccc3n2)cc1OC` : > 10 µM

---

System: IL-12 production
Protocol Description: In vitro assay of Example 12: inhibition of IL-12 production in IFNγ/LPS- or IFNγ/SAC-stimulated cells, ELISA
Type: cell-based, human
Stated Conditions: Homo sapiens; assay of Example 12; if more than one assay was performed, only the most active IC50 result is reported
# key: entry, value: IC50

Some solved entries appear below for comparison.
Documented IC50 of Fc1ccc(-c2ccc3nc(OCCN4CCOCC4)nc(N4CCOCC4)c3c2)cc1 [Compound 38] : > 10 µM

Documented IC50 of Cc1ccc(Oc2cnc3nc(OCCN4CCOCC4)nc(N4CCOCC4)c3c2)cc1 [Compound 47] : > 1 µM

As a next step, examine the compound that follows.
Documented IC50 of COc1ccc(CCOc2nc(N3CCOCC3)c3cc(-c4cccc(C#N)c4)ccc3n2)cc1OC [Compound 23] : > 10 µM
